Tested on: HCT-116 colon
Experiment: NCI-60 one-dose screen, 48 h (100 = growth as untreated, 0 = no growth, -100 = all killed)
Conditions: 10 µM unless noted
The panel holds about 83,000 compounds, 20% with a hit somewhere; the sample as a whole holds those more often.
RECORDED METRIC: growth (%)
Give bare numbers, in %.

• O=C1/C(=C/c2ccccn2)NC(=S)N1c1ccccc1Cl = 12.2
• O=S(=O)(NCCNc1nccc(-c2c(-c3cccc(O)c3)nc3occn23)n1)c1ccc(Br)cc1 = 10.2
• CC1(C)[C@@H](O[C@@H]2OC[C@@H](O[C@@H]3O[C@H](CO)[C@@H](O)[C@H](O)[C@H]3O[C@@H]3OC[C@@H](O)[C@H](O)[C@H]3O)[C@H](O)[C@H]2O[C@@H]2O[C@H](CO)[C@@H](O)[C@H](O)[C@H]2O)CC[C@]2(C)[C@H]3CC[C@]45OC[C@@]6(CC[C@](C)(C=O)C[C@H]64)[C@H](O)C[C@@]5(C)[C@]3(C)CC[C@@H]12 = -75.9
• N#Cc1nc(-c2ccccc2)oc1S(=O)(=O)N1CCN(c2ccc(F)cc2)CC1 = 52.8
• O=c1c2c3c(sc2n2c(-c4cc(-c5ccccc5)no4)nnc2n1Cc1ccccc1)CCCC3 = 81.6

Give growth for all compounds that follow.
1. O=C(CCCCCCN1CC(=O)N2[C@H](c3ccc(Cl)cc3)c3[nH]c4ccccc4c3C[C@@H]2C1=O)NO
2. N#Cc1c(-c2ccccc2)nc(SCC(O)CN2CCOCC2)nc1N1CCOCC1 (stereo unspecified)
3. CCN1CCN(CC(=O)Nc2nc3ccc(NCc4ccc(F)cc4)cc3s2)CC1
4. C=C(C)[C@@H]1CC[C@]2(C(N)=O)CC[C@]3(C)[C@H](CC[C@@H]4[C@@]5(C)CC[C@H](OCCC#N)C(C)(C)[C@@H]5CC[C@]43C)[C@@H]12
5. CN(C)CCN1C(=O)c2cccc3c(/C=C/CN4C(=O)c5cccc6cccc(c56)C4=O)ccc(c23)C1=O
6. Oc1c(CN2CCC(N3CCCCC3)CC2)cc(Cc2cc(CN3CCC(N4CCCCC4)CC3)c(O)c3ncccc23)c2cccnc12

[reply]
1: 24.7; 2: 57.5; 3: 70.9; 4: 91; 5: 9.57; 6: 13

Give growth for all compounds that follow.
1. COc1cnc2c(c1)C(=O)c1c-2n(CCCCl)c(=O)c2ccncc12
2. COc1ccc(/C=C(/C(=O)n2cnnn2)c2cc(OC)c(OC)c(OC)c2)cc1
3. COC(=O)c1c2c(c(C)[n+]([O-])c1C)C(=O)C(NCc1ccc(OC)cc1)=CC2=O
4. Fc1cc(Nc2ccc3c(OCCCN4CCOCC4)cccc3n2)ccc1Cl
5. O=S(=O)(Nc1cc(Sc2cccc3cccnc23)c(O)c2ccccc12)c1ccccc1

[reply]
[40.4, 13.7, 3.89, 3.61, -15.2]
